Hey, just so you know, these numbers are from ChEMBL document CHEMBL1134688.

target: Adrenergic receptor alpha-2 (Rattus norvegicus) (UniProt P22086+P19328+P22909); experiment: Ratio of binding affinity towards Alpha-2 and alpha-1 adrenergic receptor; assay type: protein assay
Entry flag: yes (1) if Ratio reaches 30; no (0) if it does not.

{"columns": ["chemical string", "subject of test", "label"],
 "data": [
  ["COc1ccccc1OCCN1CCN(c2cnn(CCCCCN3CCN(c4ccccc4Cl)CC3)c(=O)c2Cl)CC1", "Adrenergic receptor alpha-2 (Rattus norvegicus) (UniProt P22086+P19328+P22909)", "no (0)"],
  ["COc1ccccc1N1CCN(CCCn2nc(N3CCN(C(=O)c4ccco4)CC3)ccc2=O)CC1", "Adrenergic receptor alpha-2 (Rattus norvegicus) (UniProt P22086+P19328+P22909)", "no (0)"],
  ["COc1ccccc1N1CCN(CCn2ncc(N3CCN(C(=O)c4ccco4)CC3)c(Cl)c2=O)CC1", "Adrenergic receptor alpha-2 (Rattus norvegicus) (UniProt P22086+P19328+P22909)", "no (0)"],
  ["COc1ccccc1N1CCN(CCCCCCCn2ncc(N3CCN(C(=O)c4ccco4)CC3)c(Cl)c2=O)CC1", "Adrenergic receptor alpha-2 (Rattus norvegicus) (UniProt P22086+P19328+P22909)", "yes (1)"],
  ["COc1ccccc1N1CCN(CCCn2ncc(N3CCN(C(=O)c4ccco4)CC3)c(Cl)c2=O)CC1", "Adrenergic receptor alpha-2 (Rattus norvegicus) (UniProt P22086+P19328+P22909)", "yes (1)"]
]}

###

Entries annotated with measured Ratio
target: Adrenergic receptor alpha-2 (Rattus norvegicus) (UniProt P22086+P19328+P22909); assay: Ratio of binding affinity towards Alpha-2 and alpha-1 adrenergic receptor; assay type: protein assay

{"columns": ["chemical string", "Ratio"],
 "data": [
  ["COc1ccccc1OCCN1CCN(c2cnn(CCCCCCCCN3CCN(c4ccccc4Cl)CC3)c(=O)c2Cl)CC1", 4],
  ["O=C(c1ccco1)N1CCN(c2cnn(CCCCN3CCN(c4ccccc4Cl)CC3)c(=O)c2Cl)CC1", 14.7],
  ["O=C(c1ccco1)N1CCN(c2cnn(CCCCCN3CCN(c4ccccc4Cl)CC3)c(=O)c2Cl)CC1", 5]
]}

###

Molecular target: Adrenergic receptor alpha-2 (Rattus norvegicus, UniProt P22086+P19328+P22909)
Sequence (P22086 whole entry): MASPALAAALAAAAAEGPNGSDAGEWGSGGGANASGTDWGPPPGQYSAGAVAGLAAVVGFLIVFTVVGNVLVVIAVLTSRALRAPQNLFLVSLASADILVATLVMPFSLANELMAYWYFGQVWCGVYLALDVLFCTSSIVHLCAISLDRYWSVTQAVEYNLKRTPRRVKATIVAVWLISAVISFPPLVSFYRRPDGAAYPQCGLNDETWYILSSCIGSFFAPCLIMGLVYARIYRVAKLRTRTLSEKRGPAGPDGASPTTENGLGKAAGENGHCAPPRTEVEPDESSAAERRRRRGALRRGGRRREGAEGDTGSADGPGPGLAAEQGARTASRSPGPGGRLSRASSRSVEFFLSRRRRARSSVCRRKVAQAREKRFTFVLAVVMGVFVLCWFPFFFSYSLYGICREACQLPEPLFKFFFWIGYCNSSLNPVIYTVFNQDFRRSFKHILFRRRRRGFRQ
Sequence (P19328 whole entry): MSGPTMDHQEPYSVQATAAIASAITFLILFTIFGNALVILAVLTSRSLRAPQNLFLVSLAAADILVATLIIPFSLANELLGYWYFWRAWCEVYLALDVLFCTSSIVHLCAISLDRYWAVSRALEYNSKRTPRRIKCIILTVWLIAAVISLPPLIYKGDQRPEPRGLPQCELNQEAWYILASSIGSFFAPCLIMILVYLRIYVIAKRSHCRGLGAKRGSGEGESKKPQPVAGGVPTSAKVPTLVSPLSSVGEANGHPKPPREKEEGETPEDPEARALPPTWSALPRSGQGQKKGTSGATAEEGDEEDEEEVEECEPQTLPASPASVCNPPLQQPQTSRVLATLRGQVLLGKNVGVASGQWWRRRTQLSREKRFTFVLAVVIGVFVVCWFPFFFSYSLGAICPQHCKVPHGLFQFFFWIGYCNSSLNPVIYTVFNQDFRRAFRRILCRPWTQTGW
Sequence (P22909 whole entry): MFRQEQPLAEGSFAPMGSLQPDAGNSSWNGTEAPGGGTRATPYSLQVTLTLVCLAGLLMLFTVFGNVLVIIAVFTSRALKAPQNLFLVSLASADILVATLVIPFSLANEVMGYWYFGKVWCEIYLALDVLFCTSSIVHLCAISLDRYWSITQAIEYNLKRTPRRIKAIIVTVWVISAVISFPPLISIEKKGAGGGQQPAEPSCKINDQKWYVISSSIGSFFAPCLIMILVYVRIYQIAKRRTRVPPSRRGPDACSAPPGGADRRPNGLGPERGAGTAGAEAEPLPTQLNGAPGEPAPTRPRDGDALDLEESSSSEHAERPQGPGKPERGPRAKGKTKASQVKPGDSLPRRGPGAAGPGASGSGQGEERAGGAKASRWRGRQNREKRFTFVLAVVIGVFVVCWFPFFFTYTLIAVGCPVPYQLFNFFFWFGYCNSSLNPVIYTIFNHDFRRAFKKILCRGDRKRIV
Assay: Binding affinity towards alpha-2 adrenergic receptor in rat cortex membrane using [3H]rauwolscine radioligand
Format: cell membranes
Entries annotated with measured Ki

{"columns": ["chemical string", "Ki (µM)"],
 "data": [
  ["O=C(c1ccco1)N1CCN(c2cnn(CCCCN3CCN(c4ccccc4Cl)CC3)c(=O)c2Cl)CC1", 0.28],
  ["COc1ccccc1OCCN1CCN(c2cnn(CCCCN3CCN(c4ccccc4Cl)CC3)c(=O)c2Cl)CC1", 0.0393],
  ["COc1ccccc1N1CCN(CCCCCn2ncc(N3CCN(C(=O)c4ccco4)CC3)c(Cl)c2=O)CC1", 0.0233],
  ["COc1ccccc1OCCN1CCN(c2ccc(=O)n(CCCCCCN3CCN(c4ccccc4Cl)CC3)n2)CC1", 0.1388],
  ["COc1ccccc1OCCN1CCN(c2ccc(=O)n(CCCCCCCN3CCN(c4ccccc4OC)CC3)n2)CC1", 0.0458],
  ["COc1ccccc1OCCN1CCN(c2ccc(=O)n(CCCN3CCN(c4ccccc4OC)CC3)n2)CC1", 0.254],
  ["COc1ccccc1OCCN1CCN(c2ccc(=O)n(CCCCCCN3CCN(c4ccccc4OC)CC3)n2)CC1", 0.0718],
  ["O=C(c1ccco1)N1CCN(c2ccc(=O)n(CCCN3CCN(c4ccccc4Cl)CC3)n2)CC1", 0.26],
  ["COc1ccccc1OCCN1CCN(c2ccc(=O)n(CCN3CCN(c4ccccc4Cl)CC3)n2)CC1", 0.37]
]}
